Entry source: the supplement of paper PMC10724198

Tested on: Saccharomyces cerevisiae;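 note: PSI is a weighted mean of sequencing reads over stability bins, variants kept only with over 10 reads, mCherry proximal and sfGFP distal, peptide attached via GGGS linker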
Test: protein stability index of tFT-peptide fusion (C-terminal peptide) (PSI (0-1 scale)); higher = more stable (slower turnover)
Conditions: genetic background: wild type; temperature: 30 C
Met means recorded protein stability index is 0.7 or above; Not met means it is below 0.7.

Say whether GLGQGVGWPWAV shows protein stability index of 0.7 or more. Not met

Reported protein stability index at or above 0.7? VTKESPSLCLCV Not met

Is protein stability index at least 0.7? Consider ALSRRPAAGDGP Not met

For this sequence, is measured protein stability index 0.7 or higher? QVISDEHLCRFV Not met

Reported protein stability index at or above 0.7? PPPPPHPALPVP Met

Answer whether protein stability index of VGGGGAVDGRSG is greater than or equal to 0.7. Met

Is the recorded value of protein stability index equal to or greater than 0.7 for this sequence? FLIFGMVDFAVV Not met

State whether the measured protein stability index reaches 0.7, counting equality as reaching it, for LLSFFLSPPSIL Met

Tell me whether protein stability index is at least 0.7 here: FSFCFCFPLSSL Not met

Could you verify whether the entry SLCWDVLFLPVV shows protein stability index of no less than 0.7? Met

Given YTLWFLAWGLVF , state whether its protein stability index is at least 0.7. Not met

Decide: protein stability index of GRVIVCLSWGRL >= 0.7? Not met

Evaluate MVSMFRLFLGLV : protein stability index at minimum 0.7? Not met

Check this sequence for protein stability index at or above 0.7: YPGPFTGCSKIQ Not met

Decide: protein stability index of FTQDYRRKTMSH >= 0.7? Not met

Please tell me: is the sequence QSSWGGRWVRGG at or over 0.7 in terms of protein stability index? Not met
